# TEST DETAILS: total protein half-life in vivo (active degradation + dilution); higher = more stable protein
# ASSAY CONTEXT: wild type E. coli NCM3722; growth: C-lim chemostat; doubling time 3 h
We begin with a simple list: items and their reported total protein half-life in vivo.
Please respond with the number in h and leave the unit unwritten.

# SEQUENCE, UNIT SPEC, NUMERIC VALUE
rows = [
    ("MWYQKTLTLSAKSRGFHLVTDEILNQLADMPRVNIGLLHLLLQHTSASLTLNENCDPTVRHDMERFFLRTVPDNGNYEHDYEGADDMPSHIKSSMLGTSLVLPVHKGRIQTGTWQGIWLGEHRIHGGSRRIIATLQGE [P0AF48]", "h", 2.96),
]

Inquiry: Determine from records and report total protein half-life in vivo for MGAELVKWVKSHKIDAHIITFVAKMPYIDSIKLLEAGAKGCVWKTSHPAKLNRAIDSISNGYTYFDSVHMDCEKISSRYSSDNQLTNRESEILQLIADGKTNKEIANFLQLSRKTVETHRLNIMKKLDVHSGIELIKTALRMGVCTI
Reply text: 2.7

Inquiry: Determine from records and report total protein half-life in vivo for MTDLIQRPRRLRKSPALRAMFEETTLSLNDLVLPIFVEEEIDDYKAVEAMPGVMRIPEKHLAREIERIANAGIRSVMTFGISHHTDETGSDAWREDGLVARMSRICKQTVPEMIVMSDTCFCEYTSHGHCGVLCEHGVDNDATLENLGKQAVVAAAAGADFIAPSAAMDGQVQAIRQALDAAGFKDTAIMSYSTKFASSFYGPFREAAGSALKGDRKSYQMNPMNRREAIRESLLDEAQGADCLMVKPAGAYLDIVRELRERTELPIGAYQVSGEYAMIKFAALAGAIDEEKVVLESLGSIKRAGADLIFSYFALDLAEKKILR [P0ACB2]
Reply text: 2.99
